- System: RAW-Dual (murine macrophage reporter line)
- PROTOCOL_TEXT: IRF reporter (Lucia luciferase) activity fold change vs agonist alone; higher = enhanced IRF activity
- CONDITION_CONTEXT: modulator concentration 10 µM; agonist: 3'3'-cGAMP 10 ug/mL
TEST_READOUT: IRF reporter
Enter the number alone.

COMPOUND	TESTED_SYSTEM	ASSAY_VALUE
O=C1CCC(=O)N1C1CC2CCC(C1)N2C(=O)Cc1cccc2ccccc12 (configuration not stated)	RAW-Dual (murine macrophage reporter line)	1.08

stdin: Given the compound Cc1ccc(-c2nn(-c3ccccc3)cc2C=C2C(=O)NC(=O)NC2=O)o1 , what is its reported IRF reporter?
stdout: 1.01

stdin: // query IRF reporter value for entry CCCCCC(=O)NC(Oc1ccc([N+](=O)[O-])cc1)C(Cl)(Cl)Cl (configuration not stated)
stdout: 0.896

stdin: Which IRF reporter value is on record for Br.NCCc1cc(O)c(O)cc1O ?
stdout: 0.609

stdin: I have this compound here, CC(=O)OC1CCC2(C)C(CCC3C4CCC(=O)C4(C)CCC32)C1 (configuration not stated) , and I need its recorded IRF reporter.
stdout: 0.939

stdin: Query: IRF reporter; subject: CCOc1cc(C=C2C(=O)NC(=O)NC2=O)ccc1OCc1c(Cl)cccc1Cl
stdout: 1.07

stdin: Which measured IRF reporter value corresponds to CC12CCC3C(CCC4CC(O)CCC43C)C1CCC2O (configuration not stated) ?
stdout: 0.891
